Listing of entries alongside the reported Kd.
# assay.system: T1, mouse SORT1 (76-753)-His (mouse, UniProt Q6PHU5 76-753)
# T1 construct: range 76-753; Amine-coupled to CM5 chip for SPR
# T1 sequence (looked up): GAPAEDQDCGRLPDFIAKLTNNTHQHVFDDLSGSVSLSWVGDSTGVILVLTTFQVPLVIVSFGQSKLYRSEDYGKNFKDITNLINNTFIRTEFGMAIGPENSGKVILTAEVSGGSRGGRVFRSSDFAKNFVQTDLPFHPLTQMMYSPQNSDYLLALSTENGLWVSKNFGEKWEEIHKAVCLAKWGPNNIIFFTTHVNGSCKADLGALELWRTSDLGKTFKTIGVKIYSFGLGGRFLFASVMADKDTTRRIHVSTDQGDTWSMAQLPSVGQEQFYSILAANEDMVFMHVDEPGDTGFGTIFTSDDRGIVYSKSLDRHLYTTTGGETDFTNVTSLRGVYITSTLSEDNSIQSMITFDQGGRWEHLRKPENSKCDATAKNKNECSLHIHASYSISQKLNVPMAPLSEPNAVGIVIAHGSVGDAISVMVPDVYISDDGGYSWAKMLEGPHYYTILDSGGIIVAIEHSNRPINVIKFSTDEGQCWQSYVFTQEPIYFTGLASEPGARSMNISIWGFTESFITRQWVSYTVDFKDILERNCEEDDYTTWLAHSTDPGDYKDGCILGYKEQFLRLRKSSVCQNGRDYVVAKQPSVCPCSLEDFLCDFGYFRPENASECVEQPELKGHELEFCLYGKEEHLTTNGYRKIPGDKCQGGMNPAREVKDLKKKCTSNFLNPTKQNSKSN
# assay.procedure: SPR (Biacore 8K), SORT1 on CM5 chip, siRNA-peptide conjugate as analyte, 1:1 model
Bridges are numbered along the chain shown (N, C = ends). Where no end group is shown, it is not given here. Side-chain parts run from the residue outwards. [ ]: non-standard residue; d: D form. tBuAla = CC(C)(C)C[C@H](N)C(=O)O; Cba = N[C@@H](CC1CCC1)C(=O)O; Tle = CC(C)(C)[C@H](N)C(=O)O; linker = not defined here; Nle = CCCC[C@H](N)C(=O)O; siRNA = not defined here
endpoint: Kd (nM)

- binder: "APRWDAPLRDPALRQLL (also: conjugated to siRNA, linker and handle not given here, also called SORT1 peptide 1 siRNA conjugate) [SORT1 peptide 1 conjugate]"
  endpoint: "Kd"
  u: "nM"
  meas.value: 30.2
- binder: "RWCENK([linker-siRNA])R[Nle]FTCRQ[Tle][tBuAla] (disulfide 3-11 (inferred); not fully specified; printed as RWCENKR(Nle)FTCRQ(B13)(F02); reading uncertain, also called SORT1 peptide 3 siRNA conjugate) [SORT1 peptide 3 conjugate]"
  endpoint: "Kd"
  u: "nM"
  meas.value: 178
- binder: "APRWDAPLRDPALRQ[Tle][Cba] (also: conjugated to siRNA targeting a housekeeping gene mRNA, linker and handle not given here, also called SORT1 peptide 2 siRNA conjugate; Arb-SAR-Q15_PDC2) [SORT1 peptide 2 conjugate]"
  endpoint: "Kd"
  u: "nM"
  meas.value: 8.56

Just for reference, patent US20260183411A1 is where these values come from.
